# test target: T1, murine GPC3-his protein (Sino Biological, Cat. No. 50989-M08B) (murine, UniProt Q8CFZ4 25-558)
# T1 construct: Bought protein; also called murine GPC3 protein
# T1 sequence (Q8CFZ4 25-558 limits assumed): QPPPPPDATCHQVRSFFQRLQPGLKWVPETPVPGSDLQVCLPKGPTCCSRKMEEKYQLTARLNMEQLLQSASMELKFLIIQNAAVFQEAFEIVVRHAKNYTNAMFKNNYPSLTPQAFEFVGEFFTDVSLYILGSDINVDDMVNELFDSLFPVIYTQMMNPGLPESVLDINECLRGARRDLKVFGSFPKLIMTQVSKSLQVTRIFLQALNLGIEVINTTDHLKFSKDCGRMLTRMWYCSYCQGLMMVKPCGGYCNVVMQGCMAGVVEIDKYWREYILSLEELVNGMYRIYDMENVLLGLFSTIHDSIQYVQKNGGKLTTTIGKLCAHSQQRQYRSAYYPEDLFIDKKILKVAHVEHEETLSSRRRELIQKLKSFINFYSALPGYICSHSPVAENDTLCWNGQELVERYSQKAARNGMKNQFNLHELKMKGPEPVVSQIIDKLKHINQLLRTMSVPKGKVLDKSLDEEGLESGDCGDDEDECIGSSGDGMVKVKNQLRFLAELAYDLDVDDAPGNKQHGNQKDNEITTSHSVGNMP
# test name: ELISA, coated murine GPC3-His;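 also: antigen coated on plates at 1 µg/mL, test antibody bound for 2 h at 37 °C, detected with HRP-conjugated secondary antibody and TMB substrate after acid stop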
quantity name: OD450 at 0.0001 nM antibody (OD450 nm)
Write down the numeric answer in OD450 nm and omit the unit.

Data request: Need OD450 at 0.0001 nM antibody of F1.62.9 human-murine chimeric antibody (antibody, human IgG1, kappa, V domains shown) VH: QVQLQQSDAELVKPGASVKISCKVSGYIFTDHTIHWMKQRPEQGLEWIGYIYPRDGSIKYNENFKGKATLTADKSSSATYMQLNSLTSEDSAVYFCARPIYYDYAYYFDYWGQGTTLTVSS VL: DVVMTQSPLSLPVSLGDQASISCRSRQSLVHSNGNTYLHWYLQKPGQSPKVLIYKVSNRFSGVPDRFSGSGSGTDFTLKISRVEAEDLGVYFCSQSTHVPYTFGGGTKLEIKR , thanks.
Data returned: 0.04

Data request: Input F2.23.8 human-murine chimeric antibody (antibody, human IgG1, kappa, V domains shown) VH: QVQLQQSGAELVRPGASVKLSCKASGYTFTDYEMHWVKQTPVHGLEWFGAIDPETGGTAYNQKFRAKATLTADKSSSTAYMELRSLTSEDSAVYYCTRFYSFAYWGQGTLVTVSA VL: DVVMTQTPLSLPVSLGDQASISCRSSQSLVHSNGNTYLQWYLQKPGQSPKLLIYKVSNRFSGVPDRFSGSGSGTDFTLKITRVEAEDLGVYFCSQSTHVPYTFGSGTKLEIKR
Data returned: 0.05

Data request: Input F1.118.4 human-murine chimeric antibody (antibody, human IgG1, kappa, V domains shown) VH: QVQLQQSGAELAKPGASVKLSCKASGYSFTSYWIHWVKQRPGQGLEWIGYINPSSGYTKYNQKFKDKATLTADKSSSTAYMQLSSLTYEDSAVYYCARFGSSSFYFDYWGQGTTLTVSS VL: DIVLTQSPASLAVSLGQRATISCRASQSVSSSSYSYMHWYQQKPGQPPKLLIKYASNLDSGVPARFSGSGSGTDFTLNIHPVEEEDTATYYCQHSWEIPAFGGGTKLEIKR
Data returned: 0.05
